Target: T1, human Trop-2 expressed on cell surface (human, UniProt P09758 27-323)
T1 sequence (looked up): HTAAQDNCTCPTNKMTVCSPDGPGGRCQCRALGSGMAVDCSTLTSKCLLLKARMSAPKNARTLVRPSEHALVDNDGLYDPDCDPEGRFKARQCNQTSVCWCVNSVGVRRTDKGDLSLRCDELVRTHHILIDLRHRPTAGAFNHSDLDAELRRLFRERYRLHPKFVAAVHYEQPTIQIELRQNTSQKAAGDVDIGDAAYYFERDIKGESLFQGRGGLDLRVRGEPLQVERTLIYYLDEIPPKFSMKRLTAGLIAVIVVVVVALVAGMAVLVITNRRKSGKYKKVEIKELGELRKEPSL
Assay: cell-based or functional assay
quantity kind: Internalization %, MDA-MB-231, 2 µg/ml, 4 h

Query block: Item 10A9 (antibody, V domains shown, Rabbit-derived clone; LEM construct: VH + rabbit IgG CH1 + human IgG1 CH2-CH3) VH: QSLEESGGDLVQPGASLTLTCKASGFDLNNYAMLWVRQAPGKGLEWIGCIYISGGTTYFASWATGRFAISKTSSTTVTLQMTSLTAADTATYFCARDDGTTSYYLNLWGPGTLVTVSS VL: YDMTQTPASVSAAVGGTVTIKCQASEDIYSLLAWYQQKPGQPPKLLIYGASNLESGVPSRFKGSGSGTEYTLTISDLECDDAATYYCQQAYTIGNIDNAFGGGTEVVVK has what recorded Internalization %, MDA-MB-231, 2 µg/ml, 4 h?
Result block: 49%
